- Tested on: FGFR3(G697C)
- run parameters: Compound Concentration (nM):1000;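 further: KINOMEscan scanMAX binding as percent activity remaining versus control; lower means stronger binding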
Hi there, I'd appreciate the recorded Percent Control for every entry that follows.
Write the number in % without appending the unit.

Data request: Any idea what Percent Control was measured for O=C(Nc1n[nH]c2nc(-c3ccc(O)cc3)c(Br)cc12)C1CC1 [SB-725317] ?
Data returned: 100

Data request: Any idea what Percent Control was measured for CCS(=O)(=O)c1ccc(OC)c(Nc2ncc(-c3cccc(OC)c3)o2)c1 [GW580509X] ?
Data returned: 31

Data request: Any idea what Percent Control was measured for Cl.O=C(Nc1ccc(Oc2ccc3[nH]c(NC(=O)c4ccco4)nc3c2)cc1)Nc1cc(C(F)(F)F)ccc1F [GW683134A] ?
Data returned: 69

Data request: Any idea what Percent Control was measured for NS(=O)(=O)c1ccc(N/N=C2\C(=O)Nc3ccc(-c4cnco4)cc32)cc1 [GW276655] ?
Data returned: 78

###

- Tested on: MERTK
- run parameters: Compound Concentration (nM):1000
measure: Percent Control (%)
Write the number in % without appending the unit.

Data request: Short answer please: Percent Control, MERTK, entry CCS(=O)(=O)c1ccc(OC)c(Nc2ncc(-c3cccc(F)c3)o2)c1 [GW621970X]
Data returned: 67

Data request: Short answer please: Percent Control, MERTK, entry Cl.O=C(Nc1ccc(Oc2ccc3[nH]c(NC(=O)c4ccccc4)nc3c2)cc1)Nc1cc(C(F)(F)F)ccc1F [GW709042A]
Data returned: 8.2

Data request: Short answer please: Percent Control, MERTK, entry NS(=O)(=O)c1ccc(N/N=C2\C(=O)Nc3ccc(-c4cnco4)cc32)cc1 [GW276655]
Data returned: 60

Data request: Short answer please: Percent Control, MERTK, entry COc1ccc2cc(-c3c(-c4ccncc4)nc(-c4ccc(S(C)(=O)=O)cc4C)n3C)ccc2c1 [SB-633825]
Data returned: 82

Data request: Short answer please: Percent Control, MERTK, entry Cl.c1ccc(Cc2nc3ccc(Nc4ncnc5ccccc45)cc3[nH]2)cc1 [GR269666A]
Data returned: 100

Data request: Short answer please: Percent Control, MERTK, entry O=C1Nc2ccc(C(=O)c3ccco3)cc2C1=Cc1cc(Cl)c(O)c(Cl)c1 [GW406108X]
Data returned: 100

Data request: Short answer please: Percent Control, MERTK, entry NS(=O)(=O)c1ccc(N/N=C2\C(=O)Nc3ccc(C(=O)NCc4ccncc4)cc32)cc1 [GW300657X]
Data returned: 69

Data request: Short answer please: Percent Control, MERTK, entry COc1cccc(-n2ncc3c(N/N=C/c4ccncc4)ncnc32)c1 [GW784752X]
Data returned: 86

###

- Test system: BTK
- run parameters: Compound Concentration (nM):1000
measure: Percent Control (%)
Write the number in % without appending the unit.

Data request: Short answer please: Percent Control, BTK, entry COc1ccccc1-c1cc(/C=C2\C(=O)Nc3ncc(Br)cc32)cc(Br)c1O [GW442130X]
Data returned: 99

Data request: Short answer please: Percent Control, BTK, entry COc1ccc2c(-c3ccnc(Nc4cccc(OC(F)(F)F)c4)n3)cnn2n1 [GW810372X]
Data returned: 84

Data request: Short answer please: Percent Control, BTK, entry COc1cc(/C=N/Nc2ncnc3[nH]ncc23)ccc1O [GW578748X]
Data returned: 44

Data request: Short answer please: Percent Control, BTK, entry COc1cc2ncnc(Nc3ccc4c(cnn4Cc4ccccc4)c3)c2cc1OC.Cl [GW282449A]
Data returned: 40

Data request: Short answer please: Percent Control, BTK, entry NS(=O)(=O)c1ccc(N/N=C2\C(=O)Nc3ccc(C(=O)NCCc4c[nH]cn4)cc32)cc1 [GW300660X]
Data returned: 100

Data request: Short answer please: Percent Control, BTK, entry C[C@@H](Oc1cc(-n2cnc3ccc(OC4CCN(C)CC4)cc32)sc1C(N)=O)c1ccccc1Cl [GSK579289A]
Data returned: 92

Data request: Short answer please: Percent Control, BTK, entry Cl.O=C(Nc1ccc(Oc2ccc3[nH]c(NC(=O)c4ccccc4)nc3c2)cc1)Nc1cc(C(F)(F)F)ccc1F [GW709042A]
Data returned: 93

Data request: Short answer please: Percent Control, BTK, entry CC1=C(C(=O)Nc2ccc3[nH]ncc3c2)C(c2ccc(Cl)c(Cl)c2)CC(=O)N1 (centres unmarked) [GSK299115A]
Data returned: 26
